- Tested on: HeLa
- protocol text: Cytotoxicity against human HeLa cells assessed as dehydrogenase activity after 24 hrs by […]
- Format: functional
- reported conditions: read-out: LC50 (the source's name)
measurement kind: CC50 (µM)

INSERT INTO measurements (molecule, value_unit, assay_value) VALUES
  ('CC(C)C[C@@H](NC(=O)[C@H](N)CCCCN)C(=O)N[C@H](C)C(=O)N[C@H](CCCCN)C(=O)N[C@H](CC(C)C)C(=O)N[C@H](C)C(=O)N[C@H](CCCCN)C(=O)N[C@H](CCCCN)C(=O)N[C@H](CC(C)C)C(=O)N[C@H](C)C(=O)N[C@H](CCCCN)C(=O)N[C@H](CC(C)C)C(=O)N[C@H](C)C(=O)N[C@H](CCCCN)C(=O)O', 'µM', 350),
  ('C[C@@H](NC(=O)[C@@H](CC1CCCCC1)NC(=O)[C@H](N)CCCCN)C(=O)N[C@H](CCCCN)C(=O)N[C@H](CC1CCCCC1)C(=O)N[C@H](C)C(=O)N[C@H](CCCCN)C(=O)N[C@H](CCCCN)C(=O)N[C@H](CC1CCCCC1)C(=O)N[C@H](C)C(=O)N[C@H](CCCCN)C(=O)N[C@H](CC1CCCCC1)C(=O)N[C@H](C)C(=O)N[C@H](CCCCN)C(=O)O', 'µM', 2.3),
  ('CCCCCC[C@@H](NC(=O)[C@H](N)CCCCN)C(=O)N[C@H](C)C(=O)N[C@H](CCCCN)C(=O)N[C@H](CCCCCC)C(=O)N[C@H](C)C(=O)N[C@H](CCCCN)C(=O)N[C@H](CCCCN)C(=O)N[C@H](CCCCCC)C(=O)N[C@H](C)C(=O)N[C@H](CCCCN)C(=O)N[C@H](CCCCCC)C(=O)N[C@H](C)C(=O)N[C@H](CCCCN)C(=O)O', 'µM', 2.5),
  ('CC(C)CC(NC(=O)C(N)CCCCN)C(=O)NC(C)C(=O)NC(CCCCN)C(=O)NC(CC(C)C)C(=O)NC(C)C(=O)NC(CCCCN)C(=O)NC(CCCCN)C(=O)NC(CC(C)C)C(=O)NC(C)C(=O)NC(CCCCN)C(=O)NC(CC(C)C)C(=O)NC(C)C(=O)NC(CCCCN)C(=O)O (racemic)', 'µM', 160);

The measured values listed here are drawn from ChEMBL document CHEMBL1138505.
